# METHOD_DESCRIPTION: chemical genetic growth profiling, strain panel (AID 1159580);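 further: tested at 20 µM; growth read once vehicle control cultures reached saturation at 30 °C; 1 = growth at the plate median or of vehicle wells; lower values mean less growth of the strain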
# CONDITION_NOTES: S. cerevisiae deletion strains, growth OD, locus YGR040W, strain KSS1, stronger effect = lower value
About 2,000 (36%) of roughly 5,500 compounds were called active. Roughly 18% stayed inconclusive and do not appear here. The list shows a part of the results.
EXPERIMENTAL_READOUT: normalized growth

Worked examples, 4 molecules total:
O=C1Nc2ccccc2/C1=N/N=C\c1ccccc1Cl ... 0.903 (inactive)
COc1cc(NC(=S)Nc2ccccc2OC(F)(F)F)cc(C(F)(F)F)c1 ... 0.951 (inactive)
CC(C)(C)c1csc(NNC(=O)c2ccc(Cl)cc2)n1 ... 0.883 (inactive)
Cc1cc(C(=O)N(c2ccccc2)C(C)C2CC2)c(Cl)cc1Cl (stereo not given) ... 0.944 (inactive)

The record that follows has no normalized growth shown yet.
For CC(C)(C)c1csc(NC(=O)c2ccc(Cl)cc2Cl)n1 the molecule record lists normalized growth as 0.954 (inactive)
